# assay-protocol: binders of probe aHhip on microarray, primary screen, stem cell growth factor project, biochemical, small-molecule microarray, fluorescence 635/667 (AID 1087);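 further: score merges spot fluorescence at 667nm with spot signal to noise ratio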
# condition: higher = more signal
measurement-kind: composite z-score
Please state the value as a number alone, without comment.

Consider the following illustrative entries.
molecule	measurement-kind	observed-value
COC(=O)CC=C[C@@H](C)[C@@H](C=NOC[C@@H](O)[C@H]1O[C@@H]2OC(C)(C)O[C@@H]2[C@H]1O)OC	composite z-score	0.221
O=C1[C@H]2CCn3c(=O)n(-c4ccccc4)c(=O)n3[C@H]2[C@H](O)[C@@H]2O[C@H]12	composite z-score	-0.305
C[C@@H]1CC[C@H]2C(=O)OC(Cc3ccccc3)CN2[C@H]1c1ccc(Br)cc1 (stereo not given in full)	composite z-score	0.0373

Query block: Quick check: composite z-score of `CO[C@@H]1COC(=O)CC=C[C@H](C)[C@H](OC)COC(=O)[C@@H]2CCCN2C(=O)CC=C[C@H]1C` ?
Result block: -0.166

Query block: Please give the result for `CC(CCN1CCCCc2nc(C)c(C)cc21)=NO[C@H](C)c1cn([C@@H]2COC[C@H]2O)nn1` too.
Result block: -0.0772

Query block: Please give the result for `CC(=O)OC[C@H]1O[C@@H](ON=C2[C@H]3CCn4c(=O)n(-c5ccccc5)c(=O)n4[C@H]3[C@H](O)[C@@H]3O[C@H]23)[C@H](OC(C)=O)[C@@H](OC(C)=O)[C@@H]1OC(C)=O` too.
Result block: -0.0024

Query block: Please give the result for `CCOC(=O)CCN1C(=O)[C@H]2[C@H]3[C@H](O)[C@H](O)CC(=NO[C@@H]4O[C@H](CO)[C@@H](O)[C@H](O)[C@H]4O)[C@@H]3CC[C@H]2C1=O` too.
Result block: -0.0296

Query block: Please give the result for CCOC(=O)[C@H](Cc1ccccc1)NC(=O)CCC1CC(OC(=O)NCc2ccc3c(c2)OCO3)CC2(CCCC(COC(=O)NCCc3ccc(Cl)cc3)O2)O1 (stereo not given in full) too.
Result block: -0.0994
